# Assay Method Text: Pharmacokinetics of caspofungin during continuous venovenous hemodiafiltration (CVVHD)
# Format: in vivo, human
# Applied Conditions: human, in vivo, iv, patient 9; 2 h after infusion ended; steady state, CVVHD; HPLC; read-out: Arterial caspofungin concentration
Quantity Kind: level at 2 h (ng/mL)
The answer is to be given in ng/mL; state only the numeric part.

Specify measured level at 2 h for `CC[C@H](C)C[C@H](C)CCCCCCCCC(=O)N[C@H]1C[C@@H](O)[C@@H](NCCN)NC(=O)[C@@H]2[C@@H](O)CCN2C(=O)[C@H]([C@H](O)CCN)NC(=O)[C@H]([C@H](O)[C@@H](O)c2ccc(O)cc2)NC(=O)[C@@H]2C[C@@H](O)CN2C(=O)[C@H]([C@@H](C)O)NC1=O` .
5720

---

# Assay Method Text: Pharmacokinetics of caspofungin during continuous venovenous hemodiafiltration (CVVHD)
# Type: in vivo, human
# Applied Conditions: human, in vivo, iv, patient 11; 1.5 h after infusion ended; steady state, CVVHD; HPLC; read-out: Arterial caspofungin concentration
Quantity Kind: level at 1.5 h (ng/mL)
Response body: numeric value in ng/mL, unit text excluded.

Give the value of level at 1.5 h reported for the following: `CC[C@H](C)C[C@H](C)CCCCCCCCC(=O)N[C@H]1C[C@@H](O)[C@@H](NCCN)NC(=O)[C@@H]2[C@@H](O)CCN2C(=O)[C@H]([C@H](O)CCN)NC(=O)[C@H]([C@H](O)[C@@H](O)c2ccc(O)cc2)NC(=O)[C@@H]2C[C@@H](O)CN2C(=O)[C@H]([C@@H](C)O)NC1=O`
8390

---

# Assay Method Text: Pharmacokinetics of caspofungin during continuous venovenous hemodiafiltration (CVVHD)
# Assay type: in vivo, human
# Applied Conditions: human, in vivo, iv, patient 8; 24 h after infusion ended; steady state, CVVHD; HPLC; read-out: Arterial caspofungin concentration
Quantity Kind: level at 24 h (ng/mL)
# number only, unit ng/mL dropped from output

Dear colleague, please send me the reported level at 24 h for `CC[C@H](C)C[C@H](C)CCCCCCCCC(=O)N[C@H]1C[C@@H](O)[C@@H](NCCN)NC(=O)[C@@H]2[C@@H](O)CCN2C(=O)[C@H]([C@H](O)CCN)NC(=O)[C@H]([C@H](O)[C@@H](O)c2ccc(O)cc2)NC(=O)[C@@H]2C[C@@H](O)CN2C(=O)[C@H]([C@@H](C)O)NC1=O` when you can.
2730

---

# Assay Method Text: Pharmacokinetics of caspofungin during continuous venovenous hemodiafiltration (CVVHD)
# Assay type: in vivo, human
# Applied Conditions: human, in vivo, iv, patient 5; 4 h after infusion ended; steady state, CVVHD; HPLC; read-out: Arterial caspofungin concentration
Quantity Kind: level at 4 h (ng/mL)
API: value field is a number in ng/mL; no unit string.

Provide only the value of recorded level at 4 h for `CC[C@H](C)C[C@H](C)CCCCCCCCC(=O)N[C@H]1C[C@@H](O)[C@@H](NCCN)NC(=O)[C@@H]2[C@@H](O)CCN2C(=O)[C@H]([C@H](O)CCN)NC(=O)[C@H]([C@H](O)[C@@H](O)c2ccc(O)cc2)NC(=O)[C@@H]2C[C@@H](O)CN2C(=O)[C@H]([C@@H](C)O)NC1=O`
3770

---

# Assay Method Text: Pharmacokinetics of caspofungin during continuous venovenous hemodiafiltration (CVVHD)
# Format: in vivo, human
# Applied Conditions: human, in vivo, iv, patient 5; 24 h after infusion ended; steady state, CVVHD; HPLC; read-out: Arterial caspofungin concentration
# Protocol: The aim of the present study was to describe the pharmacokinetics of caspofungin in 12 critically ill adult patients with suspected or proven invasive candidiasis who were receiving continuous venovenous hemodiafiltration (CVVHD). CVVHD was performed using a polysulfone hemofilter (Fresenius, Germany). Caspofungin was administered at usual doses. […]
Quantity Kind: level at 24 h (ng/mL)
Lab book: enter the figure in ng/mL, no units written.

Give level at 24 h for the following molecule: CC[C@H](C)C[C@H](C)CCCCCCCCC(=O)N[C@H]1C[C@@H](O)[C@@H](NCCN)NC(=O)[C@@H]2[C@@H](O)CCN2C(=O)[C@H]([C@H](O)CCN)NC(=O)[C@H]([C@H](O)[C@@H](O)c2ccc(O)cc2)NC(=O)[C@@H]2C[C@@H](O)CN2C(=O)[C@H]([C@@H](C)O)NC1=O [caspofungin]
1590

---

# Assay Method Text: Pharmacokinetics of caspofungin during continuous venovenous hemodiafiltration (CVVHD)
# Format: in vivo, human
# Applied Conditions: human, in vivo, iv, patient 10; 6 h after infusion ended; steady state, CVVHD; HPLC; read-out: Arterial caspofungin concentration
Quantity Kind: level at 6 h (ng/mL)
Use ng/mL as the unit, but write only the number.

Give a short answer stating reported level at 6 h for CC[C@H](C)C[C@H](C)CCCCCCCCC(=O)N[C@H]1C[C@@H](O)[C@@H](NCCN)NC(=O)[C@@H]2[C@@H](O)CCN2C(=O)[C@H]([C@H](O)CCN)NC(=O)[C@H]([C@H](O)[C@@H](O)c2ccc(O)cc2)NC(=O)[C@@H]2C[C@@H](O)CN2C(=O)[C@H]([C@@H](C)O)NC1=O [caspofungin] .
6400

---

# Assay Method Text: Pharmacokinetics of caspofungin during continuous venovenous hemodiafiltration (CVVHD)
# Assay type: in vivo, human
# Applied Conditions: human, in vivo, iv, patient 5; 1 h after infusion ended; steady state, CVVHD; HPLC; read-out: Arterial caspofungin concentration
Quantity Kind: level at 1 h (ng/mL)
Please give a number only; it is taken to be in ng/mL.

Item `CC[C@H](C)C[C@H](C)CCCCCCCCC(=O)N[C@H]1C[C@@H](O)[C@@H](NCCN)NC(=O)[C@@H]2[C@@H](O)CCN2C(=O)[C@H]([C@H](O)CCN)NC(=O)[C@H]([C@H](O)[C@@H](O)c2ccc(O)cc2)NC(=O)[C@@H]2C[C@@H](O)CN2C(=O)[C@H]([C@@H](C)O)NC1=O` : provide level at 1 h
4440

---

# Assay Method Text: Pharmacokinetics of caspofungin during continuous venovenous hemodiafiltration (CVVHD)
# Assay type: in vivo, human
# Applied Conditions: human, in vivo, iv, patient 12; 6 h after infusion ended; steady state, CVVHD; HPLC; read-out: Arterial caspofungin concentration
Quantity Kind: level at 6 h (ng/mL)
# unit: ng/mL | format: bare number

Determine its reported level at 6 h: `CC[C@H](C)C[C@H](C)CCCCCCCCC(=O)N[C@H]1C[C@@H](O)[C@@H](NCCN)NC(=O)[C@@H]2[C@@H](O)CCN2C(=O)[C@H]([C@H](O)CCN)NC(=O)[C@H]([C@H](O)[C@@H](O)c2ccc(O)cc2)NC(=O)[C@@H]2C[C@@H](O)CN2C(=O)[C@H]([C@@H](C)O)NC1=O`
3600

---

# Assay Method Text: Pharmacokinetics of caspofungin during continuous venovenous hemodiafiltration (CVVHD)
# Type: in vivo, human
# Applied Conditions: human, in vivo, iv, patient 9; 0.5 h after infusion ended; steady state, CVVHD; HPLC; read-out: Arterial caspofungin concentration
Quantity Kind: level at 0.5 h
# include the unit after the value

Provide level at 0.5 h value for the following compound: CC[C@H](C)C[C@H](C)CCCCCCCCC(=O)N[C@H]1C[C@@H](O)[C@@H](NCCN)NC(=O)[C@@H]2[C@@H](O)CCN2C(=O)[C@H]([C@H](O)CCN)NC(=O)[C@H]([C@H](O)[C@@H](O)c2ccc(O)cc2)NC(=O)[C@@H]2C[C@@H](O)CN2C(=O)[C@H]([C@@H](C)O)NC1=O [caspofungin]
7810 ng/mL

---

# Assay Method Text: Pharmacokinetics of caspofungin during continuous venovenous hemodiafiltration (CVVHD)
# Format: in vivo, human
# Applied Conditions: human, in vivo, iv, patient 8; 0.5 h after infusion ended; steady state, CVVHD; HPLC; read-out: Arterial caspofungin concentration
Quantity Kind: level at 0.5 h (ng/mL)
Numeric only. Scale: ng/mL

Item `CC[C@H](C)C[C@H](C)CCCCCCCCC(=O)N[C@H]1C[C@@H](O)[C@@H](NCCN)NC(=O)[C@@H]2[C@@H](O)CCN2C(=O)[C@H]([C@H](O)CCN)NC(=O)[C@H]([C@H](O)[C@@H](O)c2ccc(O)cc2)NC(=O)[C@@H]2C[C@@H](O)CN2C(=O)[C@H]([C@@H](C)O)NC1=O` : provide level at 0.5 h
8230

---

# Assay Method Text: Pharmacokinetics of caspofungin during continuous venovenous hemodiafiltration (CVVHD)
# Assay type: in vivo, human
# Applied Conditions: human, in vivo, iv, patient 8; 8 h after infusion ended; steady state, CVVHD; HPLC; read-out: Arterial caspofungin concentration
Quantity Kind: level at 8 h
Kindly write the number and append the unit.

Write down level at 8 h measured for item `CC[C@H](C)C[C@H](C)CCCCCCCCC(=O)N[C@H]1C[C@@H](O)[C@@H](NCCN)NC(=O)[C@@H]2[C@@H](O)CCN2C(=O)[C@H]([C@H](O)CCN)NC(=O)[C@H]([C@H](O)[C@@H](O)c2ccc(O)cc2)NC(=O)[C@@H]2C[C@@H](O)CN2C(=O)[C@H]([C@@H](C)O)NC1=O`
4450 ng/mL

All values here come from paper PMC5278571.
